The following compounds each carry a recorded pKi for 5-hydroxytryptamine receptor 1A (Rattus norvegicus, UniProt P19327).
// pKi here means minus log10 of the molar concentration (mol/L)

C=CCOc1ccc2c3c1CCN(C)CC3CCC2.Cl (stereo not given)	6.20
Br.CN1CCc2ccc(Cl)c3c2C(CCCC3)C1 (stereo not given)	5.30
CN1CCc2c(Cl)ccc3c2[C@@H](CCC3)C1	7.70
C=CCN1CCc2c(Cl)ccc3c2C(CCC3)C1 (stereo not given)	8.10

[in] Request: pKi, test system 5-hydroxytryptamine receptor 1A (Rattus norvegicus, UniProt P19327), entry CN1CCc2cccc3c2[C@@H](CCC3)C1.Cl
[out] 7.20

====

- subject of test: 5-hydroxytryptamine receptor 1A (Rattus norvegicus, UniProt P19327)
- Sequence (P19327 whole entry): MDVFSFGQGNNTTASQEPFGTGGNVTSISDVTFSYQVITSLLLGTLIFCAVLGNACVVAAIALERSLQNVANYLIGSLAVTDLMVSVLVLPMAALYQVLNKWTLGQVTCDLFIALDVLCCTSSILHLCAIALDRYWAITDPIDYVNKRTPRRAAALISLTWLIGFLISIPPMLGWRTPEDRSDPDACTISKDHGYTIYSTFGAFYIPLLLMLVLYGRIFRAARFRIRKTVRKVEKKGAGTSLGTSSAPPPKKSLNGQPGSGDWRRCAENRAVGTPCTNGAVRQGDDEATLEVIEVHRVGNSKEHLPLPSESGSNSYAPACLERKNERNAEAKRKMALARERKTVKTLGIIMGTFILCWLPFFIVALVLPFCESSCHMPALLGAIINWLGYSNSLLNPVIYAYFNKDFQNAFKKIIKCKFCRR
- protocol notes: Binding affinity against 5-hydroxytryptamine 1A receptor in rat cerebral cortical membrane using [3H]-8-OH-DPAT as radioligand.
- Type: cell membranes
Recorded pKi by entry
// pKi here means minus log10 of the molar concentration (mol/L)

Worked set:
COc1ccc2c3c1CCN(C)CC3CCC2.Cl (stereo not drawn)	7.60
C=CCN1CCc2cccc3c2C(CCC3)C1.Cl (stereo not drawn)	7.70

[in] What does the record list as pKi for CCN1CCc2cccc3c2C(CCC3)C1.Cl (stereo not drawn) ?
[out] 7.30

[in] What does the record list as pKi for Br.CN1CCc2cccc3c2C(CC3)C1 (stereo not drawn) ?
[out] 7.80

[in] What does the record list as pKi for COc1ccc2c3c1CN(C)CCC3CCC2.Cl (stereo not drawn) ?
[out] 5.20

[in] What does the record list as pKi for CN1CCc2c[nH]c3cccc(c23)C1.Cl ?
[out] 5.90

[in] What does the record list as pKi for Br.COc1ccc2c3c1CCN(C)CC3CC2 (stereo not drawn) ?
[out] 7.00

[in] What does the record list as pKi for C=CCN1CCc2c(OC)ccc3c2C(CCC3)C1.Cl (stereo not drawn) ?
[out] 7.90

[in] What does the record list as pKi for CN1CCc2cccc3c2C(CCC3)C1.Cl (stereo not drawn) ?
[out] 7.30

[in] What does the record list as pKi for CN1CCc2cccc(Cl)c2CC1 ?
[out] 7.00

[in] What does the record list as pKi for Cl.O=C1CC2(CCCC2)CC(=O)N1CCCCN1CCc2cccc3c2C(CCC3)C1 (stereo not drawn) ?
[out] 7.40

[in] What does the record list as pKi for CN1CCc2ccc(Cl)c3c2C(CC3)C1 (stereo not drawn) ?
[out] 7.60

[in] What does the record list as pKi for COc1ccc2c3c1CN(C)CC3CCC2.Cl (stereo not drawn) ?
[out] 6.70

====

- subject of test: Adrenergic receptor alpha-2 (Rattus norvegicus, UniProt P22086+P19328+P22909)
- protocol notes: Binding affinity against alpha-2 adrenergic receptor in rat cerebral cortical membrane using [3H]yohimbine as radioligand.
- Assay type: cell membranes
result type: Log Ki
// no unit string in output, number only

Worked set:
CN1CCc2c(Cl)ccc3c2C(CCCC3)C1 (centres undefined)	-6.5
Br.CN1CCc2cccc3c2C(CC3)C1 (centres undefined)	-6.6
Br.CN1CCc2cccc3[nH]cc(c23)C1	-6.3
CN1CCc2ccc(Cl)c3c2C(CC3)C1 (centres undefined)	-6.8
Cl.c1ccc(CCN2CCc3cccc4c3C(CCC4)C2)cc1 (centres undefined)	-6.2
C=CCN1CCc2cccc3c2C(CCC3)C1.Cl (centres undefined)	-6.1
COc1ccc2c3c1CN(C)CC3CCC2.Cl (centres undefined)	-6.8
C=CCN1CCc2c(Cl)ccc3c2C(CCC3)C1 (centres undefined)	-6.1

Please examine the following record next.
[in] What does the record list as Log Ki for CCCN1CCc2c(Cl)ccc3c2C(CCC3)C1 (centres undefined) ?
[out] -6.4
